Can you tell me growth inhibition for the items I'm about to list?
# RUN DESCRIPTION: NCI Yeast Anticancer Drug Screen. Data for the cln2 rad14 strain (AID 165);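 note: 0% = growth equal to vehicle treated cultures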
# ASSAY CONDITIONS: S. cerevisiae cln2 rad14 strain, at 5.0 µM (retest, dose inferred, filed as 0.5), stronger effect = higher value
Compounds without any hit were thinned out: in the full panel of roughly 79,000, 15% have a hit.
// units = %; emit number, no label

Entry under test: CCc1nc(N)nc(N)c1-c1ccc(NCCN)c([N+](=O)[O-])c1 . Its growth inhibition was -7

Entry under test: N[C@H](C(=O)O)[C@@H]1CC(Cl)=NO1 . Its growth inhibition was 68

Entry under test: CC[N+]1(C)CCC(O)(/C=C/c2ccccc2)C(C(=O)/C=C/c2ccccc2)C1 (stereo not given) . Its growth inhibition was 8

Entry under test: CC(=O)Nc1cccc2ccc(C)cc12 . Its growth inhibition was 1

Entry under test: O=C(NNc1nc(-c2ccccc2)cs1)Nc1ccccc1 . Its growth inhibition was 98
